Item-by-item account of APTT
organism: Rattus norvegicus; assay: Open TG-GATES - Regimen: Daily Repeat; type: toxicity, organism-based, Sprague-Dawley; parameters: regimen Daily Repeat, gender Male, age 6 weeks; conditions: in vivo, po, 0 mg/kg, […], tissue Blood, route gavage, dose level Control, time 14 day

molecule: OCCN1CCN(CCCN2c3ccccc3Sc3ccc(C(F)(F)F)cc32)CC1
reading unit: s
APTT: 17.2
//
molecule: Cn1cc[nH]c1=S
reading unit: s
APTT: 22.2
//
molecule: C[C@H]1C(=O)O[C@@H]2CCN3CC=C(COC(=O)[C@](C)(O)[C@]1(C)O)[C@H]23
reading unit: s
APTT: 20.5
//
molecule: O=[N+]([O-])c1ccc(O)c([N+](=O)[O-])c1
reading unit: s
APTT: 16.5
//
molecule: Cc1cccc(C)c1OCC(C)N (centres undefined)
reading unit: s
APTT: 22.2
//
molecule: CCOC(=O)C(C)(C)Oc1ccc(Cl)cc1 [CLOFIBRATE]
reading unit: s
APTT: 19
//
molecule: O=C1CN(/N=C/c2ccc([N+](=O)[O-])o2)C(=O)N1
reading unit: s
APTT: 20.1
//
molecule: C=C(C)[C@H]1Cc2c(ccc3c2O[C@@H]2COc4cc(OC)c(OC)cc4[C@@H]2C3=O)O1
reading unit: s
APTT: 14.9
//
molecule: C[C@H]1O[C@H](O[C@H]2[C@H](O)[C@@H](O)[C@@H](O[C@H]3[C@H](O)[C@@H](O)C(O)O[C@@H]3CO)O[C@@H]2CO)[C@H](O)[C@@H](O)[C@@H]1N[C@H]1C=C(CO)[C@@H](O)[C@H](O)[C@H]1O (some centres undefined)
reading unit: s
APTT: 22.2

----------
Item-by-item account of TERMINAL_BW
species: Rattus norvegicus; assay: Open TG-GATES - Regimen: Single; format: toxicity, organism-based, Sprague-Dawley; parameters: regimen Single, gender Male, age 6 weeks; details: in vivo, po, 0 mg/kg, 9 h, route gavage, dose level Control

molecule: CCOC(=O)C(C)(C)Oc1ccc(Cl)cc1 [CLOFIBRATE]
TERMINAL_BW: 221.7 g

molecule: Cc1ccc2cc3c(ccc4ccccc43)c3c2c1CC3
TERMINAL_BW: 204.4 g

molecule: O=[N+]([O-])c1ccc(O)c([N+](=O)[O-])c1
TERMINAL_BW: 203.5 g

molecule: OCCN1CCN(CCCN2c3ccccc3Sc3ccc(C(F)(F)F)cc32)CC1
TERMINAL_BW: 197.8 g

molecule: C[C@H]1C(=O)O[C@@H]2CCN3CC=C(COC(=O)[C@](C)(O)[C@]1(C)O)[C@H]23
TERMINAL_BW: 207.2 g

----------
species on record: Rattus norvegicus; assay: Open TG-GATES - Regimen: Single; format: toxicity, organism-based, Sprague-Dawley; parameters: regimen Single, gender Male, age 6 weeks; conditions: in vivo, po, 0 mg/kg, 3 h, tissue Blood, route gavage, dose level Control
Item-by-item account of Ret

compound: C[C@H]1C(=O)O[C@@H]2CCN3CC=C(COC(=O)[C@](C)(O)[C@]1(C)O)[C@H]23
Ret / %: 9.3
--
compound: OCCN1CCN(CCCN2c3ccccc3Sc3ccc(C(F)(F)F)cc32)CC1
Ret / %: 7.6
--
compound: O=[N+]([O-])c1ccc(O)c([N+](=O)[O-])c1
Ret / %: 9.5
--
compound: C[C@H]1O[C@H](O[C@H]2[C@H](O)[C@@H](O)[C@@H](O[C@H]3[C@H](O)[C@@H](O)C(O)O[C@@H]3CO)O[C@@H]2CO)[C@H](O)[C@@H](O)[C@@H]1N[C@H]1C=C(CO)[C@@H](O)[C@H](O)[C@H]1O (some centres undefined)
Ret / %: 8.1
--
compound: CCOC(=O)C(C)(C)Oc1ccc(Cl)cc1 [CLOFIBRATE]
Ret / %: 7.6
--
compound: Cn1cc[nH]c1=S
Ret / %: 8.6
--
compound: Cc1ccc2cc3c(ccc4ccccc43)c3c2c1CC3
Ret / %: 8.7
--
compound: C=C(C)[C@H]1Cc2c(ccc3c2O[C@@H]2COc4cc(OC)c(OC)cc4[C@@H]2C3=O)O1
Ret / %: 9.8
--
compound: Cc1cccc(C)c1OCC(C)N (centres undefined)
Ret / %: 8.8
